Recorded cell viability, one value per entry.
system: U2OS; assay: cell viability relative to DMSO; higher = less toxic; conditions: 72 h; 10000 nM
Lab book: enter the figure in %, no units written.

query: What value of cell viability has been recorded for this entry: `C[C@@H](N[C@H]1CCCC[C@@H]1NC(=O)c1ccc(Cl)cc1)c1cccc2ccccc12`
result: 87.3

query: And the next one, `C#C[C@]1(O)CC[C@H]2[C@@H]3CCc4cc(OC)ccc4[C@H]3CC[C@@]21C` ?
result: 96.1

query: And the next one, `CCCCCCCCCCCC1=C(O)C(=O)C=C(O)C1=O` ?
result: 95.3

query: And the next one, `CC(C)n1nc(-c2cc3cc(O)ccc3[nH]2)c2c(N)ncnc21` ?
result: 16.4

query: And the next one, `CCc1cccc(N(C)C(=N)Nc2cccc3ccccc23)c1` ?
result: 88.2

* * *

Recorded cell viability, one value per entry.
test system: U2OS; experiment: cell viability relative to DMSO; higher = less toxic; conditions: 72 h; 1 nM
Lab book: enter the figure in %, no units written.

Field: example entries. Status: answers known.
| Given smiles | Readout value |
| --- | --- |
| O=C1CC(=O)c2c(Cl)c(Cl)c(Cl)c(Cl)c21 | 101 |
| CC(C)[C@H](N)C(=O)OCCOCn1cnc2c(=O)nc(N)[nH]c21 | 94 |

query: What value of cell viability has been recorded for this entry: `CC(=O)C(=Cc1cc(O)c(O)c([N+](=O)[O-])c1)C(C)=O`
result: 98.8

query: And the next one, `C[C@]1(c2nc3c(C(N)=O)cccc3[nH]2)CCCN1` ?
result: 96.7

query: And the next one, `O=C(NNc1ccccc1)c1ccncc1` ?
result: 103

* * *

test system: U2OS; assay: cell viability relative to DMSO; higher = less toxic; settings: 72 h; 100 nM
Parameter: cell viability (%)
Lab book: enter the figure in %, no units written.

Field: example entries. Status: answers known.
| Compound | Target system | cell viability, % |
| --- | --- | --- |
| C=C(c1ccc(C(=O)O)cc1)c1cc2c(cc1C)C(C)(C)CCC2(C)C | U2OS | 102 |
| C[C@H](CCC(=O)O)[C@H]1CC[C@H]2[C@@H]3C[C@H](O)[C@@H]4C[C@H](O)CC[C@]4(C)[C@H]3CC[C@]12C | U2OS | 105 |
| C=CC(=O)Nc1cccc(Nc2nc(Nc3ccc(Oc4ccnc(C(=O)NC)c4)cc3)ncc2F)c1 | U2OS | 98.3 |

query: Provide value of cell viability for this record tested with U2OS: CCOC(=O)c1cnc2c(cnn2CC)c1NN=C(C)C [etazolate]
result: 97.1

* * *

system: HepG2; test: relative viability EC50 (midpoint between 100% and the lowest measured viability); higher = less toxic; conditions: 72 h
Recorded relative viability EC50, one value per entry.

| Compound | relative viability EC50 |
| --- | --- |
| NCCc1c[nH]c2ccc(O)cc12 [serotonin] | > 10 µM |
| Ic1cc(-c2ccccc2)ncn1 [4-iodo-6-phenylpyrimidine] | > 10 µM |
| CCCCCCCCCCCC1=C(O)C(=O)C=C(O)C1=O [embelin] | > 10 µM |
| Nc1nc(OCC2CCCCC2)c2nc[nH]c2n1 [NU-2058] | > 10 µM |

query: Provide value of relative viability EC50 for this record tested with HepG2: C[n+]1c2cc(N)ccc2cc2ccc(N)cc21.Nc1ccc2cc3ccc(N)cc3nc2c1 [acriflavine]
result: 0.49 µM

query: And the next one, `O=C(O)c1cc2occc2[nH]1` ?
result: > 10 µM

* * *

Recorded cell viability, one value per entry.
test system: Caco-2; assay: cell viability relative to DMSO; higher = less toxic; details: 72 h; 100 nM
Where a name gives a salt, the structure may show the parent alone.
Lab book: enter the figure in %, no units written.

| Molecule | Parameter | Unit info | Readout value |
| --- | --- | --- | --- |
| Cc1cc(C(=CNc2ccc(Cl)cc2)C(=O)Nc2ccc(Cl)cc2)on1 | cell viability | % | 104 |
| C#C[C@]1(O)CC[C@H]2[C@@H]3CCc4cc(OC)ccc4[C@H]3CC[C@@]21C | cell viability | % | 102 |
| CCCCCCCCCCCCCCCC(=O)OC[C@H](COP(=O)([O-])OCC[N+](C)(C)C)OC(=O)CCCCCCCCCCCCCCC [colfosceril-palmitate] | cell viability | % | 101 |

query: What value of cell viability has been recorded for this entry: `Cc1cnc(Nc2ccc(N3CCN(C)CC3)cc2)nc1Nc1cccc(S(=O)(=O)NC(C)(C)C)c1`
result: 98.4

query: And the next one, `COc1ccc(/C=C\c2cc(OC)c(OC)c(OC)c2)cc1O` ?
result: 52.8

query: And the next one, `O=S(=O)(O)c1ccc(O)cc1` ?
result: 98.4

query: And the next one, `CN1C(C(=O)Nc2ccccn2)=C(O)c2sccc2S1(=O)=O` ?
result: 96.2

query: And the next one, `CNC(=O)c1ccc(-c2cnc3ncc(Cc4ccc5ncccc5c4)n3n2)cc1F` ?
result: 96.6

query: And the next one, `COc1ccc(Cl)cc1[C@]1(F)C(=O)Nc2cc(C(F)(F)F)ccc21` ?
result: 97.6

query: And the next one, `CSc1ccc(OCc2ncc([N+](=O)[O-])n2C)cc1` ?
result: 105

query: And the next one, CC[C@@H](c1cccc(O)c1)[C@@H](C)CN(C)C [Tapentadol (hydrochloride)] ?
result: 96.3

* * *

tested on: HepG2; assay: cell viability relative to DMSO; higher = less toxic; details: 72 h; 1000 nM
Returns: string. Value is Yes if measured cell viability is below 90%, and No if it is greater than or equal to it.

| Molecule | Group |
| --- | --- |
| COc1cc2ncc(-c3ccccc3)nc2cc1OC | No |

query: hey, is cell viability for `c1ccc(CCNc2nc(-c3ccccc3)cs2)cc1` lower than 90% or not?
result: No

query: And the next one, `COC(=O)C[C@](O)(CCC(C)(C)O)C(=O)O[C@@H]1C(OC)=C[C@]23CCCN2CCc2cc4c(cc2[C@H]13)OCO4` ?
result: Yes

query: And the next one, `CCCc1cc(C)[nH]c(=O)c1CNC(=O)c1cc(-c2ccc(N3CCN(C(C)C)CC3)nc2)cc2c1cnn2C(C)C` ?
result: No

* * *

system: Caco-2; experiment: cell viability relative to DMSO; higher = less toxic; details: 72 h; 100 nM
Parameter: cell viability (%)
Lab book: enter the figure in %, no units written.

Field: example entries. Status: answers known.
| Molecule | Parameter | Readout value |
| --- | --- | --- |
| CCNC(=O)[C@@H]1CCCN1C(=O)[C@H](CCCNC(=N)N)NC(=O)[C@H](CC(C)C)NC(=O)[C@@H](C)NC(=O)[C@H](Cc1ccc(O)cc1)NC(=O)[C@H](CO)NC(=O)[C@H](Cc1c[nH]c2ccccc12)NC(=O)[C@H](Cc1cnc[nH]1)NC(=O)[C@@H]1CCC(=O)N1 [alarelin] | cell viability | 86.3 |
| CN(C)CCN(C)CCc1ccc(Cl)c(Cl)c1 [BD-1047] | cell viability | 98.3 |

Switching to the query record.
query: Provide value of cell viability for this record tested with Caco-2: CNC(=O)[C@@H](Cc1ccccc1)N(C)C(=O)[C@@H](Cc1ccc2ccccc2c1)N(C)C(=O)/C=C/CC(C)(C)N [tabimorelin]
result: 103

* * *

test system: Vero E6; experiment: cell viability relative to DMSO; higher = less toxic; details: 72 h; 10000 nM
Recorded cell viability, one value per entry.
Lab book: enter the figure in %, no units written.

| Compound | Unit info | cell viability |
| --- | --- | --- |
| C=CC(=O)Nc1cccc(Nc2nc(Nc3ccc(Oc4ccnc(C(=O)NC)c4)cc3)ncc2F)c1 | % | 26.9 |
| O=C1C(=O)N(Cc2ccc(Cl)c(Cl)c2)c2ccccc21 | % | 87.8 |
| N#Cc1ccc(COC[C@H]2O[C@@H](n3c(NCc4ccc(Cl)c(Cl)c4)nc4c(N)ncnc43)[C@H](O)[C@@H]2O)cc1 | % | 99.4 |
| CC1(C)CC[C@]2(C(=O)O)CC[C@]3(C)C(=CC[C@@H]4[C@@]5(C)CC[C@H](O)C(C)(C)[C@@H]5CC[C@]43C)[C@@H]2C1 | % | 95.3 |
| COc1ccc(S(=O)(=O)N(C(C)=O)c2ccccc2/C=C/c2cc[n+]([O-])cc2)cc1 | % | 41 |

query: What value of cell viability has been recorded for this entry: `COc1ccc(-n2c(SCCCN3C(=O)c4cccc5cccc(c45)C3=O)nnc2-c2ccncc2)cc1`
result: 66.8

query: And the next one, CCN(CC)C(=O)N[C@H]1C=C2c3cccc4[nH]cc(c34)C[C@H]2N(C)C1 [lisuride] ?
result: 106

query: And the next one, `COC(=O)Nc1nc2cc(Sc3ccccc3)ccc2[nH]1` ?
result: 46.7
